system: SU-DH-L1 cells; test: Cell viability assay (CellTiter-Glo); format: cell-based; conditions: Homo sapiens, SU-DHL-1; SU-DH-L1 cells, 24 hours, Example 1
pIC50: −log10 of the molar value.
readout label: pIC50

molecule	reported value
Cc1cc(Nc2ncc(Cl)c(Nc3ccccc3S(=O)(=O)C(C)C)n2)c(OC(C)C)cc1C1CCNCC1	7.16
Cc1cc(Nc2ncc(Cl)c(Nc3ccccc3S(=O)(=O)C(C)C)n2)c(OC(C)C)cc1C1CCN(CC(=O)NCCNc2cccc3c2C(=O)N(C2CCC(=O)NC2=O)C3=O)CC1 (centres unmarked)	6.71
